Origin of values: the supplement of paper PMC10065799

- system.tested: MERTK (UniProt Q12866)
- Sequence (Q12866 whole entry, looked up): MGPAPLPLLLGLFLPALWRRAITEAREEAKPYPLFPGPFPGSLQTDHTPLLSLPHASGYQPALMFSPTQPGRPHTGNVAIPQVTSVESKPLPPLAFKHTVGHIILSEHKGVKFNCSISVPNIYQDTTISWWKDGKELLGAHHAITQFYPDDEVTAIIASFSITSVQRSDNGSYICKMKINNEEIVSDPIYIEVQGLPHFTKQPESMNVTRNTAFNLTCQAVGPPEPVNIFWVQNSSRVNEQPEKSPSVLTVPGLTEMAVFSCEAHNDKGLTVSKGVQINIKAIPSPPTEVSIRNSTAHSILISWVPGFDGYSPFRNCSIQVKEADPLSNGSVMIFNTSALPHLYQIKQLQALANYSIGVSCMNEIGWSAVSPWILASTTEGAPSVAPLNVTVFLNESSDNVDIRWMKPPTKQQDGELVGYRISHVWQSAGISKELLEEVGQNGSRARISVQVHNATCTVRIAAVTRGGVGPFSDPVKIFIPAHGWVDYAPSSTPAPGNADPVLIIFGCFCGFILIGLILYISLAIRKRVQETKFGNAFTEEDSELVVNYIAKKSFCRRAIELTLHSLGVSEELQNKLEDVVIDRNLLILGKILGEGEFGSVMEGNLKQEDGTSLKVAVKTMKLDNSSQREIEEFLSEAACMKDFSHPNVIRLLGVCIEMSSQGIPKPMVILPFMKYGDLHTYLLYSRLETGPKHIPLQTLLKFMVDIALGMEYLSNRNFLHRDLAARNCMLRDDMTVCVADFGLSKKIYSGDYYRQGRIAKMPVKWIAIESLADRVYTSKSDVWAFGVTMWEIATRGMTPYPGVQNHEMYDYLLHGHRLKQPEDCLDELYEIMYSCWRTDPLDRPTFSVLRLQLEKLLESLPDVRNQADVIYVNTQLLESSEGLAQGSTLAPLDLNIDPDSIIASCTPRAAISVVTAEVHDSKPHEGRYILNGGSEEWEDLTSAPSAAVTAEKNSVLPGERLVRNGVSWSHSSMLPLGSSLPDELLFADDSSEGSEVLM
- procedure.details: phosphorylation enrichment, bacterial display (enrichment ratio); higher = better substrate or ligand; peptides without Tyr show the background;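 note: 11-residue human phosphosite peptides and single-mutation variants displayed on the E. coli surface, counted by deep sequencing, each peptide's frequency after selection divided by its frequency in the unselected input library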;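 note: frequency after pTyr selection over input frequency; kinase dosed for 20-30% of maximal phosphorylation in three min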
measure: phosphorylation enrichment
Give bare numbers.

AHAGGYGAEAL [HBA1_Y25_E24G]: 0.438
NKHTTYTMEHI [ACTN1_Y708_N707T]: 0.434
FNSLLYQVPTS [CALCOCO2_Y358_P357L]: 12.5
CTTLHYNYMCN [TP53_Y234_I232L]: 0.558

// batch mode: one phosphorylation enrichment value per listed entry
1. ANRNVYEVEPT [MEGF10_Y1075]
2. IVLEKYKLLPE [DHFR_Y157_D153V]
3. ERPGVHTNVVE [F11_Y608_Y608H]

Key:
1. 0.476
2. 0.386
3. 0.483

----------
Consider the following sequences; for each one, report its phosphorylation enrichment.
- system.tested: MERTK (UniProt Q12866)
- procedure.details: phosphorylation enrichment, bacterial display (enrichment ratio); higher = better substrate or ligand; peptides without Tyr show the background
Answers are plain numbers.

HFPFQCHRQLY [F12_Y53_Y53C]: 0.597
LSALDYKIFYY [WDPCP_Y210]: 0.365
YDYKKYGKGLR [ZNF445_Y433]: 0.358
KASVDYIRKLQ [MITF_Y360]: 0.32

// batch mode: one phosphorylation enrichment value per listed entry
1. RRIHSYRCHLW [VHL_Y112_G114C]
2. QTLTDYDTRFY [CSNK2A3_Y131_I133T]
3. KYLENYYDLEK [MMP3_Y41_K45E]
4. LDTIQYSKHPP [SQSTM1_Y433]
5. FKPENYRRLDI [VHL_Y175_V170F]

Key:
1. 0.786
2. 0.483
3. 0.819
4. 0.792
5. 0.41

// batch mode: one phosphorylation enrichment value per listed entry
1. QMQNPYSRHSS [MUC13_Y501]
2. TLLERYGMTKI [ACSF3_Y355_E359K]
3. PMDGEYFTLQI [TP53_Y327_L323M]
4. SSMIDYKPLEK [MYOC_Y479_N480K]
5. LAARFYNWVSF [FLT4_Y1231_YF]
6. IVRSPYEDLED [VHL_Y185_L184P]

Key:
0.346
0.407
0.604
0.441
1.02
0.533

----------
- system.tested: Jak2 (UniProt O60674)
- Sequence (O60674 whole entry, looked up): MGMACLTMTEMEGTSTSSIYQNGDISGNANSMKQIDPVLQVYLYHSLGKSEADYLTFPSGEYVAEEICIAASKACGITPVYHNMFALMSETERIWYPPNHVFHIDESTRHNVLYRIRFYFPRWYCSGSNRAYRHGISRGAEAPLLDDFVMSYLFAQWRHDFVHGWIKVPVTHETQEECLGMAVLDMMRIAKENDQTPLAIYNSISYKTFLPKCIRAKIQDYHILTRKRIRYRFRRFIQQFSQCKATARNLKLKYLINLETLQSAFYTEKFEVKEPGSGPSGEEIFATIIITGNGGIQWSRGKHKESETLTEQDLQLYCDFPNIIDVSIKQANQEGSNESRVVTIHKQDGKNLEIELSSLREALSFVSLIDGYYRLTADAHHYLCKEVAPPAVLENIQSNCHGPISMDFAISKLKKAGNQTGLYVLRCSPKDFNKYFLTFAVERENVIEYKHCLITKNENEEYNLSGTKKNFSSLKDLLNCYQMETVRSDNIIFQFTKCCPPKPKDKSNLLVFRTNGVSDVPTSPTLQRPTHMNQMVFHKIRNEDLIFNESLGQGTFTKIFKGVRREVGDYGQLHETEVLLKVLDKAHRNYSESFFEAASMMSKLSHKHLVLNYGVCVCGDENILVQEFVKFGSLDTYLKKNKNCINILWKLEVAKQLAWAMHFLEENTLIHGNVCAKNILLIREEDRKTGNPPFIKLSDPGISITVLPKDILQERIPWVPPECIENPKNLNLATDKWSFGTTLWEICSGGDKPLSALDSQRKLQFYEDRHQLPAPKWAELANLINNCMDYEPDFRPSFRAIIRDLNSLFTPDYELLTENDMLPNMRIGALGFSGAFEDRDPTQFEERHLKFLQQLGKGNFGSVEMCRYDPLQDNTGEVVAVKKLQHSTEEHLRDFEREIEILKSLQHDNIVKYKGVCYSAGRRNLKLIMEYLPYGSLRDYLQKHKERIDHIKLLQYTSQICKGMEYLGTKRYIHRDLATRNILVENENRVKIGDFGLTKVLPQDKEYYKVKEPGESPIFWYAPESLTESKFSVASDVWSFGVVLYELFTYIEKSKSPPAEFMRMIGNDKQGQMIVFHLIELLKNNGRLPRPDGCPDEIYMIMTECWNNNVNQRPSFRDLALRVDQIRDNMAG
- procedure.details: phosphorylation enrichment, bacterial display (enrichment ratio); higher = better substrate or ligand; peptides without Tyr show the background
Label label 0 if phosphorylation enrichment falls below 1; label label 1 in every other case.

Solved entries:
GEEIKYMLWLL [OTC_Y55_S60L]: label 0
GLIPAYHRVIM [NMNAT1_Y64]: label 1
KIPGRYYETGS [PAX2_Y72_L69P]: label 0
VLSIDYYFPPQ [AR_Y552_P549S]: label 1
RKRQFYLFKGK [RSPO4_Y112_C107R_YF]: label 1
RALRHYFKLNI [ETV6_Y401_YF]: label 0

Exercise: Is it the case that GRQWNYVASMS [KLHL4_Y552] has phosphorylation enrichment reaching or exceeding 1?
Key: label 0

----------
- system.tested: FGFR3 (UniProt P22607)
- Sequence (P22607 whole entry, looked up): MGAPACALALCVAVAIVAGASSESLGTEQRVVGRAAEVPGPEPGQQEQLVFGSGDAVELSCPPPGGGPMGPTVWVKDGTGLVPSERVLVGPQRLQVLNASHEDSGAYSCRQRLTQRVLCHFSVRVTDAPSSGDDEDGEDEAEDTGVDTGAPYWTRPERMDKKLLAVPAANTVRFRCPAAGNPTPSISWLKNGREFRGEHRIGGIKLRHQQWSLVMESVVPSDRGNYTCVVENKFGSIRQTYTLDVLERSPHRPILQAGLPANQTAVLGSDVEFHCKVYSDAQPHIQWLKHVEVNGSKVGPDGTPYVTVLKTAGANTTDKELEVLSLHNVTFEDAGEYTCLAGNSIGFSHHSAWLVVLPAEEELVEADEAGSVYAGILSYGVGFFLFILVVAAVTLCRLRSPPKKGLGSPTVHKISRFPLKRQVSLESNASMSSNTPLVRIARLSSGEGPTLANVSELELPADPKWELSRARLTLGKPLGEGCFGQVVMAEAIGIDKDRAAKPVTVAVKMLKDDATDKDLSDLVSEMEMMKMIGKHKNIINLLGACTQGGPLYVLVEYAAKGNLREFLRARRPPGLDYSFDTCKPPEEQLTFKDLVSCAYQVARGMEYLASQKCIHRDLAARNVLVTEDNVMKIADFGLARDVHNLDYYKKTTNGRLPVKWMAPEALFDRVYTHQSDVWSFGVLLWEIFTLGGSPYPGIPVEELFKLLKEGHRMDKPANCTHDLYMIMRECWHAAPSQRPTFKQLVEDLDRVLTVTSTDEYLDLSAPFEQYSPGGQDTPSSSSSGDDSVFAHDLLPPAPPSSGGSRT
- procedure.details: phosphorylation enrichment, bacterial display (enrichment ratio); higher = better substrate or ligand; peptides without Tyr show the background
measure: phosphorylation enrichment
Answers are plain numbers.

Below, each entry is followed by its recorded phosphorylation enrichment result.
KMKGDYYRSLA [YWHAG_Y130_Y133S]: 0.513
LYEDRYLLGTS [ASS1_Y87]: 0.95
DTQNSYRCATS [TSC1_Y304_G305R]: 0.486

// batch mode: one phosphorylation enrichment value per listed entry
1. GGDGSYVSVPL [TNNI3K_Y425_S430L]
2. FSQQTYCRVSN [ABCD1_Y180_Y181C]
3. PVQAAYQKVVA [HBB_Y131]
4. TFEPNYGTVKQ [RAPGEF6_Y1447_YF]

Key:
1. 0.573
2. 0.644
3. 0.591
4. 0.63

Exercise: Given the sequence RSAGKYDVYFI [MECP2_Y120_L124F] , what is its reported phosphorylation enrichment?
Key: 0.484
